Hello, the source for this data is patent US20260116884A1, in case you need it.

Test system: IL2 activation in human PBMC
Assay: IL2 activity assay (ELISA) in human PBMC
Assay type: cell-based
Conditions: CD3/CD28 antibody, 24 h
pEC50: −log10 of the molar value.
measured_attribute: pEC50

>>> quantitative_result("CCN1CCC(n2cc(-c3c[nH]c4ncc(-c5cnc(N6CCN(C7CCC(NC(=O)c8ccc(Cl)c(N9CCC(=O)NC9=O)c8)CC7)CC6)c(C)c5)nc34)cn2)CC1 (stereo not drawn)")
6.99
>>> quantitative_result("CCN1CCC(n2cc(-c3c[nH]c4ncc(-c5ccc(N6CCC(CC7CCCN(C(=O)c8ccc(Cl)c(N9CCC(=O)NC9=O)c8)CC7)CC6)cc5)nc34)cn2)CC1 (stereo not drawn)")
7.22
>>> quantitative_result("CCN1CCC(n2cc(-c3c[nH]c4ncc(-c5cnc(OCCNC(=O)c6ccc(Cl)c(N7CCC(=O)NC7=O)c6)c(C)c5)nc34)cn2)CC1")
7.02
>>> quantitative_result("[2H]C([2H])([2H])n1cc(-c2c[nH]c3ncc(-c4ccc(N5CCC(CC6CCN(C(=O)c7ccc(Cl)c(N8CCC(=O)NC8=O)c7)CC6)CC5)nc4)nc23)cn1")
7.34
>>> quantitative_result("CCN1CCC(n2cc(-c3c[nH]c4ncc(-c5ccc(N6CCC(C)(CN7CCN(C(=O)c8ccc(Cl)c(N9CCC(=O)NC9=O)c8)CC7)CC6)cc5)nc34)cn2)CC1")
6.98
>>> quantitative_result("CCN1CCC(n2cc(-c3c[nH]c4ncc(-c5ccc(N6CCC(OC7CCN(C(=O)c8ccc(Cl)c(N9CCC(=O)NC9=O)c8)CC7)CC6)cc5)nc34)cn2)CC1")
7.38
